B1: HDV Ribozyme (parent)
chain: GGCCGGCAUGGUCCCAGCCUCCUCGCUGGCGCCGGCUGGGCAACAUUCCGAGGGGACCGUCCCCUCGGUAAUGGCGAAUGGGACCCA

Variants of: B1
Assay: self-cleavage, relative activity (ratio to wild type); higher = more cleavage; co-transcriptional
Hi, to clarify the labels: YES covers self-cleavage from 0.7 upward, NO covers anything below 0.7.

Q: Assess whether reported self-cleavage for U47C G53A sits at 0.7 or higher.
Result: YES

Q: Assess whether reported self-cleavage for G55A A56C sits at 0.7 or higher.
Result: YES

Q: Assess whether reported self-cleavage for U23A G40A sits at 0.7 or higher.
Result: YES

Q: Assess whether reported self-cleavage for C19G C33A sits at 0.7 or higher.
Result: NO

Q: Assess whether reported self-cleavage for A71C G74U sits at 0.7 or higher.
Result: YES

Q: Assess whether reported self-cleavage for G55U G68A sits at 0.7 or higher.
Result: YES

Q: Assess whether reported self-cleavage for A42U G81C sits at 0.7 or higher.
Result: NO

Q: Assess whether reported self-cleavage for G53C G74A sits at 0.7 or higher.
Result: NO

Q: Assess whether reported self-cleavage for G10C A51C sits at 0.7 or higher.
Result: NO

Q: Assess whether reported self-cleavage for G35U C85A sits at 0.7 or higher.
Result: NO

Q: Assess whether reported self-cleavage for C75U A87G sits at 0.7 or higher.
Result: NO

Q: Assess whether reported self-cleavage for G5A U47G sits at 0.7 or higher.
Result: NO

Q: Assess whether reported self-cleavage for C33U A87C sits at 0.7 or higher.
Result: YES

Q: Assess whether reported self-cleavage for C13A A77U sits at 0.7 or higher.
Result: NO

Q: Assess whether reported self-cleavage for C24U C36U sits at 0.7 or higher.
Result: NO

Q: Assess whether reported self-cleavage for G31C A71G sits at 0.7 or higher.
Result: NO

Q: Assess whether reported self-cleavage for C7G C48U sits at 0.7 or higher.
Result: NO

Q: Assess whether reported self-cleavage for U23A G59A sits at 0.7 or higher.
Result: YES

Q: Assess whether reported self-cleavage for C18U A70C sits at 0.7 or higher.
Result: NO

Q: Assess whether reported self-cleavage for G38A C44A sits at 0.7 or higher.
Result: NO

Q: Assess whether reported self-cleavage for C15G G25A sits at 0.7 or higher.
Result: NO

Q: Assess whether reported self-cleavage for C14G G81A sits at 0.7 or higher.
Result: YES

Q: Assess whether reported self-cleavage for A16C C22U sits at 0.7 or higher.
Result: NO

Q: Assess whether reported self-cleavage for C3A C66A sits at 0.7 or higher.
Result: NO

Q: Assess whether reported self-cleavage for A8C G74A sits at 0.7 or higher.
Result: NO

Q: Assess whether reported self-cleavage for C36G A45C sits at 0.7 or higher.
Result: NO

Q: Assess whether reported self-cleavage for C26U C30A sits at 0.7 or higher.
Result: YES

Q: Assess whether reported self-cleavage for C7G A43U sits at 0.7 or higher.
Result: NO

Q: Assess whether reported self-cleavage for G5A C30A sits at 0.7 or higher.
Result: NO

Q: Assess whether reported self-cleavage for C14A C84U sits at 0.7 or higher.
Result: NO

Q: Assess whether reported self-cleavage for C36U C86A sits at 0.7 or higher.
Result: YES

Q: Assess whether reported self-cleavage for U20G G35A sits at 0.7 or higher.
Result: NO

Q: Assess whether reported self-cleavage for C18A G52C sits at 0.7 or higher.
Result: NO

Q: Assess whether reported self-cleavage for G10A U72C sits at 0.7 or higher.
Result: NO

Values compiled from the RNAGym collection of RNA variant scans (doi:10.7554/elife.80360).
